Tested on: Rattus norvegicus
Assay: In vivo antagonist activity was measured as flat body posture (FBP) in a behavioral response test in reserpinized rats upon subcutaneous administration
Format: functional
endpoint-label: Behavior score
# respond with the number and nothing more

- O=C1CCOc2c(OCCNCCCCc3ccc4c(c3)CCO4)cc(F)cc21: 12.3
- O=C1CCOc2c(OCCNCCCCc3ccc4c(c3)OCO4)cc(F)cc21: 9.7
- O=C1CCOc2c(OCCNCCCCc3ccc4c(c3)OCCO4)cc(F)cc21: 11
- COc1ccc(CCCCNCCOc2cc(F)cc3c2OCC=C3)cc1: 11.8
- COc1ccc(CCCCNCCOc2cc(F)cc3c2OCCC3=O)cc1: 11.3

# input molecule: COc1ccc(CCCCNCCOc2cc(F)cc3c2OCCC3O)cc1 (stereo in doubt; 34) ; wanted: its Behavior score
12.4

Same question, COc1ccc(CCCCNCCOc2cc(F)cc3c2OCCC3)cc1 this time
11.5

====

Biological target: D(2) dopamine receptor (Rattus norvegicus, UniProt P61169)
Sequence (P61169 whole entry): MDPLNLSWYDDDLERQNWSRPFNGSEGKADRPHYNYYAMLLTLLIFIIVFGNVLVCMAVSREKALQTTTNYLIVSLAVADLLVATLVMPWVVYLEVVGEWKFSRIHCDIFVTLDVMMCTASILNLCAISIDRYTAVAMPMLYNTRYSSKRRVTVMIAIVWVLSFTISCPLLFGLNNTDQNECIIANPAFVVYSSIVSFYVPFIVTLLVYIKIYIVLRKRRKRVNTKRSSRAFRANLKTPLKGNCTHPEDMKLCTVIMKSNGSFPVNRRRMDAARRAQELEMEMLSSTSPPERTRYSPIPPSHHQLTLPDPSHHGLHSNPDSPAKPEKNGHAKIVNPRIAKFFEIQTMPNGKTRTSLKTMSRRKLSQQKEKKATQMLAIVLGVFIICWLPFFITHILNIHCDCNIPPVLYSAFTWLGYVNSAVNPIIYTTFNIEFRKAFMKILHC
Assay: Binding affinity against dopamine receptor D2 on rat striatum using [3H]spiperone as radioligand.
Each item that follows carries a reported Ki.
Write the number in nM without appending the unit.

The cases that follow already have their Ki on record.
* COc1ccc(CCCNCCOc2cc(F)cc3c2OC(C)CC3)cc1 (stereo unspecified) | 4.98
* O=C1CCOc2c(OCCNCCCCc3ccccc3)cc(F)cc21 | 43.9
* COc1ccc(CCCCCCNCCOc2cc(F)cc3c2OC(C)CC3)cc1 (stereo unspecified) | 2.31
* O=C1CCOc2c(OCCNCCCCc3ccc4c(c3)OCCO4)cc(F)cc21 | 25.1
* COc1ccc(CCCCCNCCOc2cc(F)cc3c2OC(C)CC3)cc1 (stereo unspecified) | 3.02

Now, please, on to the next molecule.
# input molecule: O=C1CCOc2c(OCCNCCCCc3ccc4c(c3)CCO4)cc(F)cc21 ; wanted: its Ki
49.6

====

Experiment: Binding affinity (Ki) ratio of D2 receptor of rat striatum and 5-HT1A receptor of rat hippocampus.
Format: tissue-based
endpoint-label: Ratio
# respond with the number and nothing more

The cases that follow already have their Ratio on record.
• COc1ccc(CCCCNCCOc2cc(F)cc3c2OCCC3=O)c2ccccc12 = 0.23
• COc1ccc(CCCCNCCOc2cc(F)cc3c2OCCC3OC)cc1 (stereo not given) = 0.5
• COc1ccc(CCCCNCCOc2cc(F)cc3c2OC(C)(C)CC3)cc1 = 0.34
• O=C1CCOc2c(OCCNCCCCc3ccc(O)cc3)cc(F)cc21 = 0.42
• COc1ccc(CCCCNCCOc2cc(F)cc3c2OC(C)CC3)cc1 (stereo not given) = 1.2
• N#Cc1ccc(CCCCNCCOc2cc(F)cc3c2OCCC3=O)cc1 = 6.4

# input compound: COc1ccccc1CCCCNCCOc1cc(F)cc2c1OCCC2=O ; wanted: its Ratio
0.99

Same question, COc1ccc(CCCCNCCOc2cc(F)cc3c2OCC/C3=N/O)cc1 this time
0.42

Same question, CCCN(CCCCc1ccc2c(c1)OCO2)CCOc1cc(F)cc2c1OCCC2=O this time
22

Same question, COc1ccc(CCCCNCCOc2cc(F)cc3c2OCCC3O)cc1 (stereo in doubt; 34) this time
1

Same question, COc1ccc(CCNCCOc2cc(F)cc3c2OC(C)CC3)cc1 (stereo not given) this time
43

====

Target: Adrenergic receptor alpha-1 (Rattus norvegicus, UniProt P15823+P23944+P43140)
Experiment: Binding affinity against alpha-1 adrenergic receptor on rat cortex using [3H]-prazosin as radioligand.
Format: tissue-based, Brain
endpoint-label: log10 Ki (log10 of the value in nM)
Note: values are log10 of Ki expressed in nM.

- COc1cccc(CCCCNCCOc2cc(F)cc3c2OCCC3=O)c1: 2.40
- CCOc1ccc(CCCCNCCOc2cc(F)cc3c2OCCC3=O)cc1: 2.82
- O=C1CCOc2c(OCCNCCCCc3ccc4c(c3)CCO4)cc(F)cc21: 2.23
- O=C1CCOc2c(OCCNCCCCc3ccc4c(c3)OCO4)cc(F)cc21: 2.32
- COc1ccc(CCCNCCOc2cc(F)cc3c2OC(C)CC3)cc1 (configuration not stated): 1.30

Adrenergic receptor alpha-1 (Rattus norvegicus, UniProt P15823+P23944+P43140) / log10 Ki / COc1ccc(CCCCNCCOc2cc(F)cc3c2OCC=C3)cc1 : value?
0.92

Same question, O=C1CCOc2c(OCCNCCCCc3ccc4c(c3)OCCO4)cc(F)cc21 this time
2.48

Same question, COc1ccc(CCCCNCCOc2cc(F)cc3c2OCCC3O)cc1 (stereo in doubt; (-)-34) this time
0.77

Same question, COc1ccc(CCCCNCCOc2cc(F)cc3c2OCC/C3=N/O)cc1 this time
2.32

Same question, O=C1CCOc2c(OCCNCCCCc3ccccc3)cc(F)cc21 this time
1.96

Same question, COc1ccc(CCCCNCCOc2cc(F)cc3c2OC(C)(C)CC3)cc1 this time
0.55

====

Biological target: Serotonin 1a (5-HT1a) receptor/Adrenergic receptor alpha-1 (Rattus norvegicus) (UniProt P15823+P23944+P43140+P19327)
Test: Selectivity for 5-HT1A receptor of rat hippocampus and alpha-1 adrenergic receptor of rat cortex.
Assay type: tissue-based
Each item that follows carries a reported Selectivity.
# respond with the number and nothing more

# input compound: CCCN(CCC)[C@H]1CCc2c(F)ccc(O)c2C1 ; wanted: its Selectivity
130

Same question, COc1ccc(CCNCCOc2cc(F)cc3c2OCCC3=O)cc1 this time
78

Same question, O=C1CCOc2c(OCCNCCCCc3ccc(Cl)cc3)cc(F)cc21 this time
5.2

====

Target: Adrenergic receptor alpha-1 (Rattus norvegicus, UniProt P15823+P23944+P43140)
Sequence (P15823 whole entry): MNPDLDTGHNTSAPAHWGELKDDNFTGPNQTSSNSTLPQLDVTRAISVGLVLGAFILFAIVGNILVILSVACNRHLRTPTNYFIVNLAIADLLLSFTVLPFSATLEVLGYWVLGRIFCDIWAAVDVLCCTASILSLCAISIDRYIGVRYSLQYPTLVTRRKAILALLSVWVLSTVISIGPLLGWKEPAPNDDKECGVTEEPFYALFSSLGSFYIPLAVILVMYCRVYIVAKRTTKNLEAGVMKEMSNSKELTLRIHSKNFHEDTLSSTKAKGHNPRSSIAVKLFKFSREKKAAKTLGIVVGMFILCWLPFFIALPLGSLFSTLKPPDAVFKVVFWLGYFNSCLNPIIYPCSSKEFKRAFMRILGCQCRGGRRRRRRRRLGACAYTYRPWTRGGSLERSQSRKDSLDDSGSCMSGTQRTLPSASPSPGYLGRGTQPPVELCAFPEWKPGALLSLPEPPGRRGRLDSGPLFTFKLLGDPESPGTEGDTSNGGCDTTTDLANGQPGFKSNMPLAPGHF
Sequence (P23944 whole entry): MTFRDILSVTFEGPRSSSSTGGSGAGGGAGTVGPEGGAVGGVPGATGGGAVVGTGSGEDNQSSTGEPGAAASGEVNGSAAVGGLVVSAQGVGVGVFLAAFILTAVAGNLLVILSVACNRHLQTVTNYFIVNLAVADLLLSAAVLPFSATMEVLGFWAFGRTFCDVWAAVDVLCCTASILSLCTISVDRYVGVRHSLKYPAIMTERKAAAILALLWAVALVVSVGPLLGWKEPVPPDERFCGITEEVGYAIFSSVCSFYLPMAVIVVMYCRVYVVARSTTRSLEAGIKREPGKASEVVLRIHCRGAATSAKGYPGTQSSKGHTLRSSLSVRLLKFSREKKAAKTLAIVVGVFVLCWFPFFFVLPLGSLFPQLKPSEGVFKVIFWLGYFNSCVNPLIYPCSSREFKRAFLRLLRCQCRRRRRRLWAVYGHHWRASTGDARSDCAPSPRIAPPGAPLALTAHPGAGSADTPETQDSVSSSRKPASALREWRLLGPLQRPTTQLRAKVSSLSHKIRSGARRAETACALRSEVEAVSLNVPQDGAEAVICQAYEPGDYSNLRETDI
Sequence (P43140 whole entry): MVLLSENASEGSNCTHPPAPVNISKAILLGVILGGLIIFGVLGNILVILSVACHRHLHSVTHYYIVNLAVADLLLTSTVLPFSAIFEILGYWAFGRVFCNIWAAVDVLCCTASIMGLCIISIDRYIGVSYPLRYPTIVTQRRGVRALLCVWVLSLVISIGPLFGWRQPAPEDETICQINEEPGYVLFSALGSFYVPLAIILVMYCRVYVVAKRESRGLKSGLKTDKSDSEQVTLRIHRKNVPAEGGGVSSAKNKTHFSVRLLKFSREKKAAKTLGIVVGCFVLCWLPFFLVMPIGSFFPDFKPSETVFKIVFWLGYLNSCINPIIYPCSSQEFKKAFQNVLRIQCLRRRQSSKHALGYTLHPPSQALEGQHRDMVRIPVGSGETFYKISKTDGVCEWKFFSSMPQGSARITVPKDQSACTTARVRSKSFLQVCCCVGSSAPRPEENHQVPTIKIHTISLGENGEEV
Test: Binding affinity against alpha-1 adrenergic receptor on rat cortex using [3H]-prazosin as radioligand.
Format: tissue-based, Brain
endpoint-label: log10(Ki) (log10 of the value in nM)
Note: values are log10 of Ki expressed in nM.

The cases that follow already have their log10(Ki) on record.
* COc1ccc(CCNCCOc2cc(F)cc3c2OCCC3O)cc1 (stereo unspecified) | 1.13
* COc1ccc(CCCCNCCOc2cc(F)cc3c2OC(C)CC3)cc1 (stereo unspecified) | 0.61
* COc1ccc(CCCCNCCOc2cc(F)cc3c2OCCC3OC)cc1 (stereo unspecified) | 2.24
* COc1ccc(CCCCN(C)CCOc2cc(F)cc3c2OCCC3=O)cc1 | 3.13
* COc1ccc(CCNCCOc2cc(F)cc3c2OCCC3=O)cc1 | 2.50
* COc1ccc(CCCCCCNCCOc2cc(F)cc3c2OC(C)CC3)cc1 (stereo unspecified) | 1.49
* CCCN(CCCCc1ccc2c(c1)OCO2)CCOc1cc(F)cc2c1OCCC2=O | 2.87
* COc1ccc(CCCCNCCOc2cc(F)cc3c2OCCC3=O)c2ccccc12 | 2.30
* COc1ccc(CCCCNCCOc2cc(F)cc3c2OCCC3=O)cc1 | 2.31
* N#Cc1ccc(CCCCNCCOc2cc(F)cc3c2OCCC3=O)cc1 | 2.55

Now, please, on to the next compound.
# input compound: CCCOc1ccc(CCCCNCCOc2cc(F)cc3c2OCCC3=O)cc1 ; wanted: its log10(Ki)
2.93
